testedOn: Ephrin type-B receptor 2 (Homo sapiens) (UniProt P29323)
Sequence (P29323 whole entry): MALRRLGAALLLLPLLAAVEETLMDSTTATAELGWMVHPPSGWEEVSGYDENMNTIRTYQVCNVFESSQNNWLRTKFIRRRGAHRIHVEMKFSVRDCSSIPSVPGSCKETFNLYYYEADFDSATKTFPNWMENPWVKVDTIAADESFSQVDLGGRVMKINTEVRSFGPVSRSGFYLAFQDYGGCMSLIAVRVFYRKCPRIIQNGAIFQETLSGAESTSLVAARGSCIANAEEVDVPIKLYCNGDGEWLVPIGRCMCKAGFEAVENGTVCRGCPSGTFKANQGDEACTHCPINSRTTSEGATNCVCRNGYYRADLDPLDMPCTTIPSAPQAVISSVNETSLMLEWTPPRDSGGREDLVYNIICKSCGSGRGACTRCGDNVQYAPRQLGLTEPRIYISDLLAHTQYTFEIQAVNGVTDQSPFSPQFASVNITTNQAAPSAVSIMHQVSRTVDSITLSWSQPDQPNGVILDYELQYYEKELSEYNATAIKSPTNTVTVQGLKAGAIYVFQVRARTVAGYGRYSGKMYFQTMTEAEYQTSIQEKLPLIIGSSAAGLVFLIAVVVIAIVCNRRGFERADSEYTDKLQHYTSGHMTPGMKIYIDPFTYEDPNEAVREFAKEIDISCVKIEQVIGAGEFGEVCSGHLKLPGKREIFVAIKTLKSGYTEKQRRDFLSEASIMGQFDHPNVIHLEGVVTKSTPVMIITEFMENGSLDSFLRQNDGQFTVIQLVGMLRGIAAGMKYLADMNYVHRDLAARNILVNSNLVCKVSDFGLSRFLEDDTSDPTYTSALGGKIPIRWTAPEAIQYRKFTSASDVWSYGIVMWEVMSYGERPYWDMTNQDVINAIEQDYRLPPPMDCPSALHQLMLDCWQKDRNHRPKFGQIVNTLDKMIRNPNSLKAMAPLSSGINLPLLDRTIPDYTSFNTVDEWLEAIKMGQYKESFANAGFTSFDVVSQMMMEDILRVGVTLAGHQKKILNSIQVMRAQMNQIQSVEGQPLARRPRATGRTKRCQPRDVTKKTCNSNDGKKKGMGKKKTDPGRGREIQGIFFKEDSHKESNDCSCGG
conditionSet: at 1 µM
recordedEndpoint: residual activity (%)
// units = %; emit number, no label

// solved cases for residual activity follow
Fill in: residual activity of `Nc1cccc(-c2cc3c(Oc4cccc(O)c4)ncnc3[nH]2)c1` is ___ 4

Moving on to the next compound: `O=C1NC(=O)c2cc(Nc3ccc(F)cc3)c(Nc3ccc(F)cc3)cc21` 105

Moving on to the next compound: `CC(=O)O/N=C1\C(=C2\C(=O)Nc3cc(Br)ccc32)Nc2ccccc21` 103

Moving on to the next compound: `Oc1ccc(Nc2nc(-c3ccc(Cl)cc3)cs2)cc1` 108

Moving on to the next compound: `c1ccc2c(-c3ccncc3)c[nH]c2c1` 108

---
Fill in: residual activity of `Cc1nc(-c2ccccc2)c(-c2ccncc2)o1` is ___ 36

Moving on to the next compound: `Ic1cccc(CSc2nnc(-c3ccncc3)o2)c1` 106

Moving on to the next compound: `O=C(O)c1ccc2c3c1cccc3c(=O)n1c3ccccc3nc21` 105

Moving on to the next compound: `O=[N+]([O-])c1ccc(-c2nc(-c3ccc(F)cc3)c(-c3ccncc3)[nH]2)cc1` 111

Moving on to the next compound: `C[C@@H](N)[C@H]1CC[C@H](C(=O)Nc2ccncc2)CC1` 90

Moving on to the next compound: `NC(=O)c1ccc2[nH]c(-c3ccc(Oc4ccc(Cl)cc4)cc3)nc2c1` 110

Moving on to the next compound: `Cn1nc2c3c(cccc31)C(=O)c1ccccc1-2` 108

----------
testedOn: Ribosomal protein S6 kinase alpha-5 (Homo sapiens) (UniProt O75582)
Sequence (O75582 whole entry, looked up): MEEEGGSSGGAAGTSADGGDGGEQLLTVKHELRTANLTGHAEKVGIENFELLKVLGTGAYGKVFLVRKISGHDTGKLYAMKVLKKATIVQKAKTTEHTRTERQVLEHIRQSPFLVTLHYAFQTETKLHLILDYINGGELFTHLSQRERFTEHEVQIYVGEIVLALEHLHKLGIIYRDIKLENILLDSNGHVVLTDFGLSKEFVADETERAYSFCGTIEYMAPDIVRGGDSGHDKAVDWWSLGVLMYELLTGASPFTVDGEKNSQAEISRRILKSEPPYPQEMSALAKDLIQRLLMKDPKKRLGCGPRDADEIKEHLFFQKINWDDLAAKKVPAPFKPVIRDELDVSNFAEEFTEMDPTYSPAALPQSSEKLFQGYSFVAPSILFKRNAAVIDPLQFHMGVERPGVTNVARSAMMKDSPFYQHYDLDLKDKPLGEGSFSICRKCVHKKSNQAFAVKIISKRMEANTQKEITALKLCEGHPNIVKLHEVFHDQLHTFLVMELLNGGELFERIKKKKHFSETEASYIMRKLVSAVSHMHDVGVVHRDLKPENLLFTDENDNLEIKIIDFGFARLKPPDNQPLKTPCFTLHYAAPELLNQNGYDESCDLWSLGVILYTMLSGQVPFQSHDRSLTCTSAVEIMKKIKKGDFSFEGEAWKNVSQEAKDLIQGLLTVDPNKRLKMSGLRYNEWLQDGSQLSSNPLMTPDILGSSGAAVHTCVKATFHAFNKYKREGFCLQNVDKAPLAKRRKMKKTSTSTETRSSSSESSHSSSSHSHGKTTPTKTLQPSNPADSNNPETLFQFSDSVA
conditionSet: at 10 µM
recordedEndpoint: residual activity (%)
// units = %; emit number, no label

Please state recorded residual activity (tested on Ribosomal protein S6 kinase alpha-5 (Homo sapiens) (UniProt O75582)) of `O=C(O)c1ccc2c3c1cccc3c(=O)n1c3ccccc3nc21` 93

Moving on to the next compound: `O=[N+]([O-])c1ccc(-c2nc(-c3ccc(F)cc3)c(-c3ccncc3)[nH]2)cc1` 119

Moving on to the next compound: `Cn1nc2c3c(cccc31)C(=O)c1ccccc1-2` 83

Moving on to the next compound: `NC(=O)c1ccc2[nH]c(-c3ccc(Oc4ccc(Cl)cc4)cc3)nc2c1` 139

----------
testedOn: Serine/threonine-protein kinase TAO1 (Homo sapiens) (UniProt Q7L7X3)
Sequence (whole entry): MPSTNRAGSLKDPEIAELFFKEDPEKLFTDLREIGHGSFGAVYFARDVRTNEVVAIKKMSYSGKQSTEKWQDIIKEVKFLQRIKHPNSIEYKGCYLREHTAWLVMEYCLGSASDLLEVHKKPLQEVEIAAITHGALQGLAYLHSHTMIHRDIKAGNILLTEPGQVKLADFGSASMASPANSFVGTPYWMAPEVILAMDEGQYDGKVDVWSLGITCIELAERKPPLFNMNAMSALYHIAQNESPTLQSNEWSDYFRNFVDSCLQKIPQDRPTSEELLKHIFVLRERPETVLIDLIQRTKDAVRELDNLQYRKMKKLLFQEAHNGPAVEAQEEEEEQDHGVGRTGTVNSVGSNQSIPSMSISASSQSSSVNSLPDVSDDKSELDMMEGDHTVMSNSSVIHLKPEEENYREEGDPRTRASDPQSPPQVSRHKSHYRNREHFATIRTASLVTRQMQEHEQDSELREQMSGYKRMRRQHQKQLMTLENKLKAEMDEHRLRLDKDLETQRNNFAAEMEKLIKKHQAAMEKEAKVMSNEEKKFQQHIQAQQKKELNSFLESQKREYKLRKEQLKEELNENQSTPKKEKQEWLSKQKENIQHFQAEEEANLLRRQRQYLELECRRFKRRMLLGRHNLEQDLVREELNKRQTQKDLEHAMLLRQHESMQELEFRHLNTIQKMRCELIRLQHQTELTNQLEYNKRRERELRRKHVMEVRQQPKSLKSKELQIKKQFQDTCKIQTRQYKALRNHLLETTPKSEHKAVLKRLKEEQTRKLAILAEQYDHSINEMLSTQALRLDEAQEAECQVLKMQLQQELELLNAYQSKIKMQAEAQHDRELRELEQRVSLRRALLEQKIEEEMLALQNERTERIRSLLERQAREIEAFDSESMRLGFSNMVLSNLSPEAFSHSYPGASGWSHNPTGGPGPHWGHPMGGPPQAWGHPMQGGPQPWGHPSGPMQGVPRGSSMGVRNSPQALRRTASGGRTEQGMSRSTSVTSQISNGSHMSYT
conditionSet: at 10 µM
Label key: rule met means residual activity under 70%; rule not met means residual activity of 70% or more.

Is 70% strictly greater than the compound's reported residual activity? compound: `Cc1cc2ncc(-c3ccccc3)nc2cc1C` rule not met

Moving on to the next compound: `COc1ccc(C(=O)Nc2sc3c(c2C(N)=O)CCCC3)cc1OC` rule not met

---
Is 70% strictly greater than the compound's reported residual activity? compound: `COc1cccc(-c2cc(=O)c3ccccc3o2)c1N` rule not met

Moving on to the next compound: `O=C(Nc1cccc(Nc2nccc(Nc3cccc(C(F)(F)F)c3)n2)c1)C1CC1` rule met

Moving on to the next compound: `Cn1cc(/C=C2\C(=O)Nc3ccc(S(N)(=O)=O)cc32)c2ccccc21` rule met

Moving on to the next compound: `CCN(CC)CCCCN1c2ccccc2Oc2ccc(Cl)cc21` rule not met

Moving on to the next compound: `CNc1cc2c(Nc3cccc(Br)c3)ncnc2cn1` rule not met

Moving on to the next compound: O=C1Nc2ccccc2/C1=C1/Nc2ccccc2/C1=N\OCCC(O)CO (configuration not stated) rule met

Moving on to the next compound: `COc1cc2ncnc(Nc3ccc(O)c(Br)c3)c2cc1OC` rule met

----------
testedOn: Serine/threonine-protein kinase DCLK2 (Homo sapiens) (UniProt Q8N568)
Sequence (Q8N568 whole entry): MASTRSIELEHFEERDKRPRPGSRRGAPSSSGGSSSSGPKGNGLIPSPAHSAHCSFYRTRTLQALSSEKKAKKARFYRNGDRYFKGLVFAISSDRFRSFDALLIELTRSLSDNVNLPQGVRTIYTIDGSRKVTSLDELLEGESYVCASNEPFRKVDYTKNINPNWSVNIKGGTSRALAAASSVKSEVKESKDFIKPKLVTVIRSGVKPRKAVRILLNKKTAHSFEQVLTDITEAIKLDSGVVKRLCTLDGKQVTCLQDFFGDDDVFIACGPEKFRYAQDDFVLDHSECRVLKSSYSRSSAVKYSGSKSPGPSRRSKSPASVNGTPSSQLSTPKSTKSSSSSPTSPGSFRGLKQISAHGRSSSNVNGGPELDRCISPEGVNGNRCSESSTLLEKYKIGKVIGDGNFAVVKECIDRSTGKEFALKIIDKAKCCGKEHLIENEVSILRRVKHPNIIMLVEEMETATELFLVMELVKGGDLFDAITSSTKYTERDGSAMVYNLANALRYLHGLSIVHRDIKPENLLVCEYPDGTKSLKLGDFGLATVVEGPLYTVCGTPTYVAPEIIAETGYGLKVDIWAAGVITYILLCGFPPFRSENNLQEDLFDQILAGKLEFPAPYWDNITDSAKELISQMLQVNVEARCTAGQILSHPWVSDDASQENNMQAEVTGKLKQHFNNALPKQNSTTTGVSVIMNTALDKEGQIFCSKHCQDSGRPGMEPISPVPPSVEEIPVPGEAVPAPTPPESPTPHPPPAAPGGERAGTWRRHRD
conditionSet: at 1 µM
Entries and their measured residual activity follow.
// units = %; emit number, no label

Please state recorded residual activity (tested on Serine/threonine-protein kinase DCLK2 (Homo sapiens) (UniProt Q8N568)) of `Cn1cnc2cc3c(Nc4cccc(Br)c4)ncnc3cc21` 102

Moving on to the next compound: `Cc1cccc(-c2[nH]c(C(C)(C)C)nc2-c2ccc3c(c2)OCO3)n1` 86

----------
testedOn: Cyclin-dependent kinase 5/CDK5 activator 1 (Homo sapiens) (UniProt Q00535+Q15078)
Sequence (Q00535 whole entry): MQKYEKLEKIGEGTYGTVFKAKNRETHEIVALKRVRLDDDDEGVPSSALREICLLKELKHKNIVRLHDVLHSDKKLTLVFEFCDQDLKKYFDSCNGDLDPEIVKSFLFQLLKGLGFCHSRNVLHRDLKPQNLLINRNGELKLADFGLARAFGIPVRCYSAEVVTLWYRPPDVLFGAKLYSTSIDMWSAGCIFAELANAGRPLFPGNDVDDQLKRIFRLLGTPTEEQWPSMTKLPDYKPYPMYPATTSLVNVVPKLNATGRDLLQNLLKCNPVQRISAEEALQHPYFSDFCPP
Sequence (Q15078 99-307 partner limits assumed): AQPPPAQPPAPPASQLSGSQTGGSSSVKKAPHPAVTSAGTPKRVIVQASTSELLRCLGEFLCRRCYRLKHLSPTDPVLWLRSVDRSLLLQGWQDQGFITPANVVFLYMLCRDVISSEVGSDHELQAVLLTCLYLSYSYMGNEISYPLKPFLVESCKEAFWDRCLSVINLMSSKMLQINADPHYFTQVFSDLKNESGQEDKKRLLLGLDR
conditionSet: at 1 µM
recordedEndpoint: residual activity (%)
// units = %; emit number, no label

// solved cases for residual activity follow
Fill in: residual activity of `COc1cc2ncnc(Nc3ccc(Oc4ccccc4)cc3)c2cc1OC` is ___ 98

Moving on to the next molecule: `COc1cc2ncnc(N3CCN(C(=O)Nc4ccc(Oc5ccccc5)cc4)CC3)c2cc1OC` 108

---
Fill in: residual activity of `CCN(CC)CCCCN1c2ccccc2Oc2ccc(Cl)cc21` is ___ 100

Moving on to the next molecule: `COc1cc2ncnc(Nc3ccc(O)c(Br)c3)c2cc1OC` 98

----------
testedOn: Serine/threonine-protein kinase MRCK alpha (Homo sapiens) (UniProt Q5VT25)
Sequence (Q5VT25 whole entry): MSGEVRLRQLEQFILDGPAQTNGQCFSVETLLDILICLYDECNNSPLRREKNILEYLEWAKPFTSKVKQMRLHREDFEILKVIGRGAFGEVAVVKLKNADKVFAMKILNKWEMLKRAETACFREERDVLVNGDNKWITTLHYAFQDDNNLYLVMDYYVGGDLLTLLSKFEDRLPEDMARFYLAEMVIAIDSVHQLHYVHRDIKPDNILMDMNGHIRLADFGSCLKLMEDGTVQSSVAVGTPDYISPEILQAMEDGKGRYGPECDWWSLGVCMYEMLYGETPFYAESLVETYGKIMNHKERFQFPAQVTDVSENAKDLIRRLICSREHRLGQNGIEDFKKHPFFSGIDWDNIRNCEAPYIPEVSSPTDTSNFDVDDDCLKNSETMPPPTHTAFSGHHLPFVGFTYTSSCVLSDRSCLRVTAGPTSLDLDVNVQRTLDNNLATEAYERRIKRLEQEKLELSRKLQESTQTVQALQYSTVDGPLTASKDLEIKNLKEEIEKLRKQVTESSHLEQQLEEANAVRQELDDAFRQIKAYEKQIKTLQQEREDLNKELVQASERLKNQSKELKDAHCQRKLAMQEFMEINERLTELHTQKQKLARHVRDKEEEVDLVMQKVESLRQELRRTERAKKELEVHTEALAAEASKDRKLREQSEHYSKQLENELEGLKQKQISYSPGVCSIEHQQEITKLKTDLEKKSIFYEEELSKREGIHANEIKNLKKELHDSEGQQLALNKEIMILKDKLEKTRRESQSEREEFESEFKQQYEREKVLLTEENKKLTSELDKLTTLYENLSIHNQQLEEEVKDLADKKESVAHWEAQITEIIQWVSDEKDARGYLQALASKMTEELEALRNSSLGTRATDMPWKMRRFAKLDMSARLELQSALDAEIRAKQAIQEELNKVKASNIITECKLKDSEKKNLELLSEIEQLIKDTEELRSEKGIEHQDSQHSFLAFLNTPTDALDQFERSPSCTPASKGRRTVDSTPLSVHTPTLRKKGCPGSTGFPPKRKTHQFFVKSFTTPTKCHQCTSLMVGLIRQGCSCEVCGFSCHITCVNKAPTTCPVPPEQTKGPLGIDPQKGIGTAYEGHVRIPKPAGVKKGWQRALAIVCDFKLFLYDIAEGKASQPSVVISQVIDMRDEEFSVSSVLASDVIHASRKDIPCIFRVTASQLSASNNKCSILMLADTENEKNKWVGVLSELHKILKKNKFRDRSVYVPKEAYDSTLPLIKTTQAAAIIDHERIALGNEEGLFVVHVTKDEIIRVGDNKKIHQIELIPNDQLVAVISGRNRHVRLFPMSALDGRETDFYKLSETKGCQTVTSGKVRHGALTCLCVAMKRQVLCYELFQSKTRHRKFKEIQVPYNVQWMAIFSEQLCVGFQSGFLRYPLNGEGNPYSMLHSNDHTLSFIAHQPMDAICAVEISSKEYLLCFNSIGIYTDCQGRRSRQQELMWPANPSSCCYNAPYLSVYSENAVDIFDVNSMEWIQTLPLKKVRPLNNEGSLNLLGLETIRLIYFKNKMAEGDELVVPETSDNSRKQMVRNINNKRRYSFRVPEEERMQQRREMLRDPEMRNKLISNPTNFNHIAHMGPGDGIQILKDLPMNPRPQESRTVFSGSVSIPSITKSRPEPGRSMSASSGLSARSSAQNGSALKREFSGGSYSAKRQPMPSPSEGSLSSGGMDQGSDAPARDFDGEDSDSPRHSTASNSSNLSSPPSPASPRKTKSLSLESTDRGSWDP
conditionSet: at 10 µM
recordedEndpoint: residual activity (%)
// units = %; emit number, no label

Fill in: residual activity of `CC#CC(=O)Nc1cc2c(Nc3ccc(F)c(Cl)c3)ncnc2cn1` is ___ 87

Moving on to the next compound: `COc1ccc(C(=O)Nc2sc3c(c2C(N)=O)CCCC3)cc1OC` 85

Moving on to the next compound: `Cc1ccc(S(=O)(=O)/C=C/C#N)cc1` 95

Moving on to the next compound: `CO[C@@H]1[C@H](N(C)C(=O)c2ccccc2)C[C@H]2O[C@]1(C)n1c3ccccc3c3c4c(c5c6ccccc6n2c5c31)C(=O)NC4` 102

Moving on to the next compound: `CN(C)CCCn1cc(C2=C(c3c[nH]c4ccccc34)C(=O)NC2=O)c2ccccc21` 76

Moving on to the next compound: `O=c1c2ccccc2[nH]c(=S)n1CCN1CCC(=C(c2ccc(F)cc2)c2ccc(F)cc2)CC1` 103

Moving on to the next compound: `N#C/C(=C(\N)Sc1ccc(N)cc1)c1ccccc1C(F)(F)F` 94

Moving on to the next compound: `COc1cc2ncc(-c3ccccc3)nc2cc1OC` 93

---
Fill in: residual activity of O=C1Nc2ccccc2/C1=C1/Nc2ccccc2/C1=N\OCCC(O)CO (stereo not given) is ___ 107

Moving on to the next compound: `Cn1cc(/C=C2\C(=O)Nc3ccc(S(N)(=O)=O)cc32)c2ccccc21` 89

----------
testedOn: Serine/threonine-protein kinase D1 (Homo sapiens) (UniProt Q15139)
Sequence (whole entry): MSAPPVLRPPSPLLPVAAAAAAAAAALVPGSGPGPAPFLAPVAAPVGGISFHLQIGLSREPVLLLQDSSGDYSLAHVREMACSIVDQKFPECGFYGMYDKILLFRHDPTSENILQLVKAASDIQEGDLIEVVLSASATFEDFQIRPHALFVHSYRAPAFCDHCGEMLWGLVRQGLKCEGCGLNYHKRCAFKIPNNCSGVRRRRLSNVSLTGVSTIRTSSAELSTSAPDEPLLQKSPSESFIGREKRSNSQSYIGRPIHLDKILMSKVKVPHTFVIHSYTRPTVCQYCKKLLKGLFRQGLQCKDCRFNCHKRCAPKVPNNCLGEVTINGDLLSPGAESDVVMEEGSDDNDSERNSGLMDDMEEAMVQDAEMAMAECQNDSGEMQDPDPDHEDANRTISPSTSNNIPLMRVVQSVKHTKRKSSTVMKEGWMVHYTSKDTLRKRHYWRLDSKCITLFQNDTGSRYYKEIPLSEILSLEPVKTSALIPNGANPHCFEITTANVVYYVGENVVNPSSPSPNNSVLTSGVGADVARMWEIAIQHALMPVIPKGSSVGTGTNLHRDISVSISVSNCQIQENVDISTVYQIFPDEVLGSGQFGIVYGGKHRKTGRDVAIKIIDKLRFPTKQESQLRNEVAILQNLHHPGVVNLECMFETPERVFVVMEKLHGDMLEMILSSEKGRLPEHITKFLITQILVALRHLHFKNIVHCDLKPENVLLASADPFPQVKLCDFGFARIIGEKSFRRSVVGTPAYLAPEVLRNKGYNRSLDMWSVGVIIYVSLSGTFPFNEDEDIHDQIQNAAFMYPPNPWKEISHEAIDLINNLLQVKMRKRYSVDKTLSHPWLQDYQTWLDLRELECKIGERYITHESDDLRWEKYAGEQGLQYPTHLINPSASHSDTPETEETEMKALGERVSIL
conditionSet: at 10 µM
Think of 70% as a floor: if residual activity stands on it or above, it is rule met; beneath it, rule not met.

Example results:
Does the molecule `CCC(=O)Nc1ccc2ncnc(Nc3cccc(Br)c3)c2c1` have recorded residual activity that is 70% or more? rule met

Moving on to the next molecule: `CCN(CC)CCCCN1c2ccccc2Oc2ccc(Cl)cc21` rule met

Moving on to the next molecule: `CCOc1cc2ncnc(Nc3cccc(Br)c3)c2cc1OCC` rule not met

Moving on to the next molecule: `CC#CC(=O)Nc1cc2c(Nc3ccc(F)c(Cl)c3)ncnc2cn1` rule met

---
Does the molecule `O=c1cc(-c2cccc3c2Sc2ccccc2S3)oc(N2CCOCC2)c1` have recorded residual activity that is 70% or more? rule met

Moving on to the next molecule: `O=C1NC(=O)/C(=C\c2ccc3nccnc3c2)S1` rule met

Moving on to the next molecule: `Oc1ccc(Nc2nc(-c3ccc(Cl)cc3)cs2)cc1` rule met

Moving on to the next molecule: `Cn1cnc2cc3c(Nc4cccc(Br)c4)ncnc3cc21` rule met

Moving on to the next molecule: `COc1cc2ncnc(Nc3ccc(Oc4ccccc4)cc3)c2cc1OC` rule met

Moving on to the next molecule: `N#CCCc1ccc2c(c1)-c1[nH]c3ccc([N+](=O)[O-])cc3c1CC(=O)N2` rule met
